Test system: HepG2
Assay Info: Induction of […] uptake in human HepG2 cells at 5 uM by DIL probe based fluorescence assay
Type: functional, cell-based
Calls of active or inactive are those of the source. The rule behind the calls is not given here.
Possible outcomes: y = active, n = inactive

Molecule Smiles | Assigned Class
CC(=O)OC(C)(C)CCC(=O)[C@](C)(O)[C@H]1[C@H](O)C[C@@]2(C)[C@@H]3CC=C4[C@@H](C[C@H](OC(=O)c5ccccc5)C(=O)C4(C)C)[C@]3(C)C(=O)C[C@]12C | n
CC(=O)O[C@@H]1C[C@@]2(C)[C@@H]3CC=C4[C@@H](CC(=O)[C@H](OC(C)=O)C4(C)C)[C@]3(C)C(=O)C[C@]2(C)[C@H]1[C@@](C)(O)C(=O)/C=C/C(C)(C)OC(C)=O | n
CC(=O)OC(C)(C)CCC(=O)[C@](C)(O)[C@H]1C(=O)C[C@@]2(C)[C@@H]3CC=C4[C@@H](C[C@H](O)C(=O)C4(C)C)[C@]3(C)C(=O)C[C@]12C | n
CO[C@@H](CC(=O)[C@](C)(O)[C@H]1[C@H](O)C[C@@]2(C)[C@@H]3CC=C4[C@@H](C[C@H](O)C(=O)C4(C)C)[C@]3(C)C(=O)C[C@]12C)C(C)(C)O | y
CC1(C)C(=O)[C@@H](O)C[C@@H]2C1=CC[C@@H]1[C@@]2(C)C(=O)C[C@]2(C)[C@@H]([C@@](C)(O)C(=O)C[C@H](O)C(C)(C)O)[C@H](O)C[C@@]12C | y
CC(=O)OC(C)(C)CCC(=O)[C@](C)(O)[C@H]1[C@H](O)C[C@@]2(C)[C@@H]3CC=C4[C@@H](C[C@H](O)C(=O)C4(C)C)[C@]3(C)C(=O)C[C@]12C | y
CC(=O)OC(C)(C)CCC(=O)[C@](C)(O)[C@H]1[C@H](O)C[C@@]2(C)[C@@H]3[C@@H](O)C=C4[C@@H](CC(=O)[C@H](O)C4(C)C)[C@]3(C)C(=O)C[C@]12C | y
CC(=O)OC(C)(C)/C=C/C(=O)[C@](C)(O)[C@H]1[C@H](O)C[C@@]2(C)[C@@H]3CC=C4[C@@H](C[C@H](OC(=O)c5ccccc5)C(=O)C4(C)C)[C@]3(C)C(=O)C[C@]12C | n
CC(=O)OC(C)(C)CCC(=O)[C@](C)(O)[C@H]1[C@H](OC(=O)c2ccccc2)C[C@@]2(C)[C@@H]3CC=C4[C@@H](C[C@H](OC(=O)c5ccccc5)C(=O)C4(C)C)[C@]3(C)C(=O)C[C@]12C | n
CC1(C)C(=O)[C@@H](O)C[C@@H]2C1=C[C@H](O)[C@@H]1[C@@]2(C)C(=O)C[C@]2(C)[C@@H](C=O)[C@H](O)C[C@@]12C | y
